Source: paper PMC6882900

Test: Population pharmacokinetic modelling of micafungin in critically ill patients (NONMEM, plasma samples)
Assay type: in vivo, human
Conditions: human, iv; final population PK model estimate (two compartments, linear elimination); 36 critically ill adult patients, 100 mg i.v. once daily; plasma, HPLC-UV
Numbered stars: 1 amine (or outer) side, 2 acyl side, 3 side chain; on linkers, the order of the positions; unused ones are H or OH. Bridge positions count the residues as written; N and C are the ends. Square brackets hold non-standard residues; d marks the D form. Peptide text beside a SMILES is read from it. * marks the point of attachment. hTyr(3S-OH,4S-OH,3'-OSO3H) = N[C@H](C(=O)O)[C@H](O)[C@@H](O)c1ccc(O)c(OS(=O)(=O)O)c1; Orn(4R-OH,5R-OH) = O=C([C@H](C[C@@H](O)[C@@H](O)N[*:3])N[*:1])[*:2]; Pro(3S-OH,4S-Me) = C[C@H]1CN[C@H](C(=O)O)[C@H]1O; X1 = CCCCCOc1ccc(-c2cc(-c3ccc(C(=O)*)cc3)no2)cc1; Gln(3R-OH) = NC(=O)C[C@@H](O)[C@H](N)C(=O)O; Hyp = O=C(O)[C@@H]1C[C@@H](O)CN1

- compound: "CCCCCOc1ccc(-c2cc(-c3ccc(C(=O)N[C@H]4C[C@@H](O)[C@@H](O)NC(=O)[C@@H]5[C@@H](O)[C@@H](C)CN5C(=O)[C@H]([C@H](O)CC(N)=O)NC(=O)[C@H]([C@H](O)[C@@H](O)c5ccc(O)c(OS(=O)(=O)O)c5)NC(=O)[C@@H]5C[C@@H](O)CN5C(=O)[C@H]([C@@H](C)O)NC4=O)cc3)no2)cc1 [micafungin] (X1-[Orn(4R-OH,5R-OH)]T[Hyp][hTyr(3S-OH,4S-OH,3'-OSO3H)][Gln(3R-OH)][Pro(3S-OH,4S-Me)]; lactam 1-C)"
  units.symbol: "mL/min"
  clearance: 26
